Data origin: paper PMC5374622

# test description: Proteolytic enzyme stability assay, carboxypeptidase A
# Type: in vitro ADME
# settings: isolated enzyme carboxypeptidase, 50 mM Tris-HCl with 100 mM NaCl pH 7.5, 37 °C, peptide:enzyme 50:1 (w/w), RP-UPLC area under the curve, MALDI-TOF MS, read-out: peptide remained intact after carboxypeptidase A treatment
Positions of bridges follow the written chain, without caps; N, C: chain ends. Non-standard residues stand in square brackets, D forms with d. No end group written: not given here. pGlu = O=C1CC[C@@H](C(=O)O)N1
property label: remaining at 6 h

Q: Value lookup for remaining at 6 h; key = [pGlu]NCGRQAGNRACANQLCCSQYGFCGSTSEYCSRANGCQSNCRG (disulfide 3-18, 12-24, 17-31, 37-41) [mO1]
Result: > 95%
